Cited source: the supplement of paper PMC7125110

B1: glmS ribozyme (parent)
chain: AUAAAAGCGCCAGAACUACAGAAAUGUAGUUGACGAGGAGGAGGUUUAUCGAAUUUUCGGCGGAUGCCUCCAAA

Variants of: B1
Test: self-cleavage kobs at 2500 uM GlcN6P; higher = faster cleavage; RNA array
Conditions: with glucosamine-6-phosphate
Variants at the floor of the assay were thinned out.

| mutation.key | unit.text | relation.symbol | self-cleavage kobs at 2500 uM GlcN6P |
| --- | --- | --- | --- |
| G41A U47A | s⁻¹ | = | 0.000608 |
| A15U G29C C50U | s⁻¹ | < | 1e-05 |
| C67A C70A | s⁻¹ | = | 6.33e-05 |
| G29A U54C | s⁻¹ | = | 0.00138 |
| A12C G26A G51U A53G C68G | s⁻¹ | = | 0.000139 |
| G7U G9C | s⁻¹ | < | 1e-05 |
| C16U U31A | s⁻¹ | = | 0.00634 |
| G35C A42U G43A A52U | s⁻¹ | < | 1e-05 |
| G43C C58A | s⁻¹ | < | 1e-05 |
| A6G C11G U45A C50A | s⁻¹ | < | 1e-05 |
| C8G G9A A14U U31G A39C U47A A64G C70U | s⁻¹ | < | 1e-05 |
